// data source = paper PMC6384738

Catalogue of compounds with associated MIC K. pneumoniae ATCC 700603
- System: K. pneumoniae ATCC 700603
- test.protocol: microbe, parasite or virus in culture
- test.parameters: ATCC 700603, 18 h
- Method: All compounds synthesised in this study were assessed for their minimum inhibitory concentrations (MIC, mg/L) by broth microdilution assay against five antibiotic-sensitive and resistant ATCC reference strains covering the Gram-negative ESKAPE pathogens (Escherichia coli, Klebsiella pneumoniae, A. baumannii, and P. aeruginosa) (Table 1, Table 2 and Table 3). Staphylococcus aureus was also included as a representative Gram-positive bacterial strain. […]
Where a SMILES comes first, the peptide text is derived from it. Bridges are numbered along the chain shown (N, C = ends). [ ]: non-standard residue; d: D form. The star is where a group is joined. hSer = N[C@@H](CCO)C(=O)O; Octanoyl = CCCCCCCC(=O)*; Dab = NCC[C@H](N)C(=O)O

Answered cases to consult:
compound="CCCCCCCC(=O)N[C@H](C(=O)N[C@@H](Cc1c[nH]cn1)C(=O)N[C@H]1CCNC(=O)[C@H]([C@@H](C)O)NC(=O)[C@H](CCN)NC(=O)[C@H](CCN)NC(=O)[C@H](CC(C)C)NC(=O)[C@@H](Cc2ccccc2)NC(=O)[C@H](CCN)NC1=O)[C@@H](C)O [Compound 47] (Octanoyl-TH[Dab][Dab][dF]L[Dab][Dab]T; lactam 3-C)" measured_quantity="MIC K. pneumoniae ATCC 700603" recorded_result="32 mg/L"
compound="CCCCCCCC(=O)N[C@H](C(=O)N[C@@H](CCO)C(=O)N[C@H]1CCNC(=O)[C@H]([C@@H](C)O)NC(=O)[C@H](CCN)NC(=O)[C@H](CCN)NC(=O)[C@H](CC(C)C)NC(=O)[C@@H](Cc2ccccc2)NC(=O)[C@H](CCN)NC1=O)[C@@H](C)O [Compound 37] (Octanoyl-T[hSer][Dab][Dab][dF]L[Dab][Dab]T; lactam 3-C)" measured_quantity="MIC K. pneumoniae ATCC 700603" recorded_result=">32 mg/L"

Exam item: # MIC K. pneumoniae ATCC 700603 lookup, item CCCCCCCC(=O)N[C@H](C(=O)N[C@@H](CC(N)=O)C(=O)N[C@H]1CCNC(=O)[C@H]([C@@H](C)O)NC(=O)[C@H](CCN)NC(=O)[C@H](CCN)NC(=O)[C@H](CC(C)C)NC(=O)[C@@H](Cc2ccccc2)NC(=O)[C@H](CCN)NC1=O)[C@@H](C)O [Compound 38] (Octanoyl-TN[Dab][Dab][dF]L[Dab][Dab]T; lactam 3-C)
Marked response: >32 mg/L

----------
- Tested on: P. aeruginosa ATTC 27853
- test.protocol: microbe, parasite or virus in culture
- test.parameters: ATTC 27853, 18 h
Where a SMILES comes first, the peptide text is derived from it. Bridges are numbered along the chain shown (N, C = ends). [ ]: non-standard residue; d: D form. The star is where a group is joined. Decanoyl(3R-OH) = CCCCCCC[C@@H](O)CC(=O)*; dDab = NCC[C@@H](N)C(=O)O; Octanoyl = CCCCCCCC(=O)*; Dab = NCC[C@H](N)C(=O)O
Catalogue of compounds with associated MIC P. aeruginosa ATTC 27853
Numeric answer only, unit µg/mL assumed.

Answered cases to consult:
compound="CCCCCCCC(=O)N[C@@H](CCN)C(=O)N[C@H](C(=O)N[C@@H](CCN)C(=O)N[C@H]1CCNC(=O)[C@H]([C@@H](C)O)NC(=O)[C@H](CCN)NC(=O)[C@H](CCN)NC(=O)[C@H](CC(C)C)NC(=O)[C@@H](Cc2ccccc2)NC(=O)[C@H](CCN)NC1=O)[C@@H](C)O [PmxB3, polymyxin B3, reference compound] (Octanoyl-[Dab]T[Dab][Dab][Dab][dF]L[Dab][Dab]T; lactam 4-C)" measured_quantity="MIC P. aeruginosa ATTC 27853" recorded_result=0.5
compound="CCCCCCCC(=O)N[C@H](C(=O)N[C@H](CO)C(=O)N[C@H]1CCNC(=O)[C@H]([C@@H](C)O)NC(=O)[C@H](CCN)NC(=O)[C@H](CCN)NC(=O)[C@H](CC(C)C)NC(=O)[C@@H](Cc2ccccc2)NC(=O)[C@H](CCN)NC1=O)[C@@H](C)O [Compound 36] (Octanoyl-T[dS][Dab][Dab][dF]L[Dab][Dab]T; lactam 3-C)" measured_quantity="MIC P. aeruginosa ATTC 27853" recorded_result=16
compound="CCCCCCCC(=O)N[C@@H](CC(N)=O)C(=O)N[C@H](CCN)C(=O)N[C@H]1CCNC(=O)[C@H]([C@@H](C)O)NC(=O)[C@H](CCN)NC(=O)[C@H](CCN)NC(=O)[C@H](CC(C)C)NC(=O)[C@@H](Cc2ccccc2)NC(=O)[C@H](CCN)NC1=O [Compound 28] (Octanoyl-N[dDab][Dab][Dab][dF]L[Dab][Dab]T; lactam 3-C)" measured_quantity="MIC P. aeruginosa ATTC 27853" recorded_result=4

Proceeding to the next compound to report its MIC P. aeruginosa ATTC 27853.
Exam item: # MIC P. aeruginosa ATTC 27853 lookup, item CCCCCCC[C@@H](O)CC(=O)N[C@H](C(=O)NCC(=O)N[C@H]1CCNC(=O)[C@H]([C@@H](C)O)NC(=O)[C@H](CCN)NC(=O)[C@H](CCN)NC(=O)[C@H](CC(C)C)NC(=O)[C@@H](Cc2ccccc2)NC(=O)[C@H](CCN)NC1=O)[C@@H](C)O [Compound 52] ({Decanoyl(3R-OH)}-TG[Dab][Dab][dF]L[Dab][Dab]T; lactam 3-C)
Marked response: 4

----------
- test.protocol: in vitro
- test.parameters: human
- Method: All compounds synthesised in this study were assessed for their minimum inhibitory concentrations (MIC, mg/L) by broth microdilution assay against five antibiotic-sensitive and resistant ATCC reference strains covering the Gram-negative ESKAPE pathogens (Escherichia coli, Klebsiella pneumoniae, A. baumannii, and P. aeruginosa) (Table 1, Table 2 and Table 3). Staphylococcus aureus was also included as a representative Gram-positive bacterial strain. […]
Where a SMILES comes first, the peptide text is derived from it. Bridges are numbered along the chain shown (N, C = ends). [ ]: non-standard residue; d: D form. The star is where a group is joined. X1 = CCCCCC1CCC(C(=O)*)CC1; dDab = NCC[C@@H](N)C(=O)O; Octanoyl = CCCCCCCC(=O)*; Dab = NCC[C@H](N)C(=O)O; Dap = NC[C@H](N)C(=O)O
measured.quantity: CC50 at 24 h
Quote the value and follow it with the unit of measurement.

Answered cases to consult:
molecule="CCCCCCCC(=O)NCC(=O)N[C@H](CCN)C(=O)N[C@H]1CCNC(=O)[C@H]([C@@H](C)O)NC(=O)[C@H](CCN)NC(=O)[C@H](CCN)NC(=O)[C@H](CC(C)C)NC(=O)[C@@H](Cc2ccccc2)NC(=O)[C@H](CCN)NC1=O [Compound 33] (Octanoyl-G[dDab][Dab][Dab][dF]L[Dab][Dab]T; lactam 3-C)" measured_quantity="CC50 at 24 h" recorded_result="262 µM"
molecule="CCCCCCCC(=O)N[C@H](C(=O)N[C@@H](CN)C(=O)N[C@H]1CCNC(=O)[C@H]([C@@H](C)O)NC(=O)[C@H](CCN)NC(=O)[C@H](CCN)NC(=O)[C@H](CC(C)C)NC(=O)[C@@H](Cc2ccccc2)NC(=O)[C@H](CCN)NC1=O)[C@@H](C)O [Compound 39] (Octanoyl-T[Dap][Dab][Dab][dF]L[Dab][Dab]T; lactam 3-C)" measured_quantity="CC50 at 24 h" recorded_result="290 µM"

Exam item: # CC50 at 24 h lookup, item CCCCCC1CCC(C(=O)N[C@H](C(=O)N[C@H](CCN)C(=O)N[C@H]2CCNC(=O)[C@H]([C@@H](C)O)NC(=O)[C@H](CCN)NC(=O)[C@H](CCN)NC(=O)[C@H](CC(C)C)NC(=O)[C@@H](Cc3ccccc3)NC(=O)[C@H](CCN)NC2=O)[C@@H](C)O)CC1 (stereo partly drawn) [Compound 24] (X1-T[dDab][Dab][Dab][dF]L[Dab][Dab]T; lactam 3-C)
Marked response: 60 µM

----------
- System: K. pneumoniae ATCC 700603
- test.protocol: microbe, parasite or virus in culture
- test.parameters: ATCC 700603, 18 h
- Experimental: All compounds synthesised in this study were assessed for their minimum inhibitory concentrations (MIC, mg/L) by broth microdilution assay against five antibiotic-sensitive and resistant ATCC reference strains covering the Gram-negative ESKAPE pathogens (Escherichia coli, Klebsiella pneumoniae, A. baumannii, and P. aeruginosa) (Table 1, Table 2 and Table 3). Staphylococcus aureus was also included as a representative Gram-positive bacterial strain. […]
Where a SMILES comes first, the peptide text is derived from it. Bridges are numbered along the chain shown (N, C = ends). [ ]: non-standard residue; d: D form. The star is where a group is joined. Butanoyl(4-OPh) = O=C(CCCOc1ccccc1)*; Cit = NC(=O)NCCC[C@H](N)C(=O)O; X2 = CCCCCOc1cccc(C(=O)*)c1; dDab = NCC[C@@H](N)C(=O)O; Octanoyl = CCCCCCCC(=O)*; Dab = NCC[C@H](N)C(=O)O
measured.quantity: MIC K. pneumoniae ATCC 700603

Answered cases to consult:
compound="CCCCCCCC(=O)N[C@H](C(=O)N[C@H](CCCCN)C(=O)N[C@H]1CCNC(=O)[C@H]([C@@H](C)O)NC(=O)[C@H](CCN)NC(=O)[C@H](CCN)NC(=O)[C@H](CC(C)C)NC(=O)[C@@H](Cc2ccccc2)NC(=O)[C@H](CCN)NC1=O)[C@@H](C)O [Compound 43] (Octanoyl-T[dK][Dab][Dab][dF]L[Dab][Dab]T; lactam 3-C)" recorded_result="4 µg/mL"
compound="CCCCCCCC(=O)N[C@H](C(=O)N[C@H](CCN)C(=O)N[C@H]1CCNC(=O)[C@H]([C@@H](C)O)NC(=O)[C@H](CCN)NC(=O)[C@H](CCN)NC(=O)[C@H](CC(C)C)NC(=O)[C@@H](Cc2ccccc2)NC(=O)[C@H](CCN)NC1=O)[C@@H](C)O [Compound 21] (Octanoyl-T[dDab][Dab][Dab][dF]L[Dab][Dab]T; lactam 3-C)" recorded_result="1 µg/mL"

Exam item: For K. pneumoniae ATCC 700603, provide MIC K. pneumoniae ATCC 700603 of CCCCCOc1cccc(C(=O)N[C@H](C(=O)N[C@@H](CCN)C(=O)N[C@H]2CCNC(=O)[C@H]([C@@H](C)O)NC(=O)[C@H](CCN)NC(=O)[C@H](CCN)NC(=O)[C@H](CC(C)C)NC(=O)[C@@H](Cc3ccccc3)NC(=O)[C@H](CCN)NC2=O)[C@@H](C)O)c1 [Compound 11] (X2-T[Dab][Dab][Dab][dF]L[Dab][Dab]T; lactam 3-C) please.
Marked response: 32 µg/mL

Exam item: Lookup CCCCCCCC(=O)N[C@H](C(=O)N[C@@H](CCCNC(N)=O)C(=O)N[C@H]1CCNC(=O)[C@H]([C@@H](C)O)NC(=O)[C@H](CCN)NC(=O)[C@H](CCN)NC(=O)[C@H](CC(C)C)NC(=O)[C@@H](Cc2ccccc2)NC(=O)[C@H](CCN)NC1=O)[C@@H](C)O [Compound 44] (Octanoyl-T[Cit][Dab][Dab][dF]L[Dab][Dab]T; lactam 3-C)
Marked response: >32 µg/mL

Exam item: Lookup CC(C)C[C@@H]1NC(=O)[C@@H](Cc2ccccc2)NC(=O)[C@H](CCN)NC(=O)[C@@H](NC(=O)CNC(=O)[C@@H](NC(=O)CCCOc2ccccc2)[C@@H](C)O)CCNC(=O)[C@H]([C@@H](C)O)NC(=O)[C@H](CCN)NC(=O)[C@H](CCN)NC1=O [Compound 51] ({Butanoyl(4-OPh)}-TG[Dab][Dab][dF]L[Dab][Dab]T; lactam 3-C)
Marked response: 16 µg/mL
